Cited source for all entries: patent US20220024921A1

Tested on: graft-versus-host disease model CB6F1 mice
Assay: Lymphocyte proliferation inhibitory effect using graft-versus-host disease model animals (splenomegaly formation)
Type: in vivo
Conditions: Mus musculus, 240 h, single dose 6 mg/kg, oral, twice a day for 10 days, GVHD model CB6F1 mice, read-out: Inhibition rate (%) (splenomegaly formation)
recorded.endpoint: inhibition in vivo at 6 mg/kg (%)
The figure you give is taken to be in %; do not add the unit.

Below, each entry is followed by its recorded inhibition in vivo at 6 mg/kg result.
C[C@H](Nc1cc(-c2n[nH]c(=O)o2)cc(F)c1C(F)(F)F)C1CCNCC1.Cl [Example 75, hydrochloride]    21.7
Cc1c(F)cc(-c2n[nH]c(=O)o2)cc1N[C@@H](C)[C@H]1CCNC[C@H]1C    36.7
Cc1c(F)cc(-c2n[nH]c(=O)o2)cc1N[C@@H](C)[C@H]1CCNC[C@H]1F    16.7

Now take the following molecule into account.
Note down inhibition in vivo at 6 mg/kg recorded for `CC[C@@H]1CNCC[C@@H]1[C@H](C)Nc1cc(-c2n[nH]c(=O)o2)cc(F)c1C`
14.4

----------
Biological target: PIM1 serine/threonine kinase (Homo sapiens)
Test: PIM1 serine/threonine kinase inhibitory effect
Settings: PIM1 serine/threonine kinase activity; ATP 40 μM; 30° C., 30 minutes
Where a name gives a salt, the structure may show the parent alone.
recorded.endpoint: IC50 (nM)
Express it in nM; write the number only.

Some molecules with recorded IC50:
CC(C)(C)OC(=O)[C@H]1CC[C@H](CNc2cc(-c3n[nH]c(=O)o3)ccc2C(F)(F)F)CC1    7300
O=c1[nH]nc(-c2ccc(C(F)(F)F)c(N[C@@H](C(F)F)C3CCNCC3)c2)o1 [Example 113, hydrochloride]    3.6
C[C@@H]([C@H]1CC[C@H](N)CC1)N1CCOc2ccc(-c3n[nH]c(=O)o3)cc21    2.8
NCCCCCNc1cc(-c2n[nH]c(=O)o2)ccc1C(F)(F)F [Example 3, hydrochloride]    11
C[C@H](Nc1cc(-c2n[nH]c(=O)o2)cc(F)c1C(F)(F)F)[C@H]1C[C@@H](N)C1(C)C [Example 164, hydrochloride]    1.7
C[C@H](Nc1cc(-c2n[nH]c(=O)o2)ccc1C(F)(F)F)[C@@H]1C[C@H](N)C1(C)C [Example 137, hydrochloride]    2.2

Continue with the next molecule.
Would you please give the reported IC50 of `C[C@@H]1CNCC[C@@H]1[C@H](C)Nc1cc(-c2n[nH]c(=O)o2)ccc1OC(F)(F)F` with PIM1 serine/threonine kinase (Homo sapiens)?
2.9

----------
Biological target: PIM1 transgenic cells (Ba/F3) (Homo sapiens, UniProt P11309)
Sequence (P11309 whole entry, change not shown): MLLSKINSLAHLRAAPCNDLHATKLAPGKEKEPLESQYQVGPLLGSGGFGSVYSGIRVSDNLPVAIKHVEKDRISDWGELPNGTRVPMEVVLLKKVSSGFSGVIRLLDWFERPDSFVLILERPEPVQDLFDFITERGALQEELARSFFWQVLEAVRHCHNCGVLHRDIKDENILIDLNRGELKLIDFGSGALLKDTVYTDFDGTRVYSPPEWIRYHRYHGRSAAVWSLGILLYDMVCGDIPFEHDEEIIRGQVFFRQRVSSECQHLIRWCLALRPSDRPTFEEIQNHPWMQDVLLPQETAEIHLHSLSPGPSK
Experiment: Proliferation inhibitory effect on PIM1 transgenic cells
Format: cell-based, mouse
Settings: proliferation inhibition, 72 hours, Cell Counting Kit-8, read-out: PIM1 IC50
Counter-ions that a name gives are not always drawn.
Label T when GI50 is strictly below 300 nM; at or above that, label F.

// below: answered compounds
N[C@H]1CC[C@@H](CNc2cc(-c3n[nH]c(=O)o3)ccc2C(F)(F)F)CC1 [Example 74, hydrochloride]    T
N[C@H]1CC[C@H](Nc2cc(-c3n[nH]c(=O)o3)ccc2Cl)CC1    F
C[C@H](Nc1cc(-c2n[nH]c(=O)o2)cc(F)c1C(F)(F)F)[C@H]1CC[C@H](N)CC1 [Example 151, hydrochloride]    T

Here's an entry: O=c1[nH]nc(-c2ccc(C(F)(F)F)c(NCCC3CCNCC3)c2)o1 [Example 64, hydrochloride] . Is its GI50 below 300 nM?
F

Dear reviewer, please state whether CC(N)[C@H]1CC[C@H](Nc2cc(-c3n[nH]c(=O)o3)ccc2C(F)(F)F)CC1 (stereo partly shown) [Example 39, hydrochloride] has GI50 strictly beneath 300 nM.
T

State whether 300 nM exceeds GI50 recorded for C[C@H](Nc1cc(-c2n[nH]c(=O)o2)ccc1C(F)(F)F)[C@H]1CCC[C@@H](N)C1 [Example 194, hydrochloride] .
T

Threshold test, GI50 < 300 nM: O=c1[nH]nc(-c2ccc(C(F)(F)F)c(N[C@@H](C(F)F)C3(F)CCNCC3)c2)o1 [Example 140, hydrochloride]
T

----------
Target: PIM1 transgenic cells (Ba/F3) (Homo sapiens, UniProt P11309)
Assay: Proliferation inhibitory effect on PIM1 transgenic cells
Type: cell-based, mouse
Conditions: proliferation inhibition, 72 hours, Cell Counting Kit-8, read-out: PIM1 IC50
Experimental: Human PIM1, 2, and 3 genes were inserted into the multi-cloning sites of retrovirus expression vectors pMYs-IRES-GFP, respectively, to prepare gene transfer vectors. […] PIM1, 2, 3-expressing cells were seeded on a 96-well plate, and each test substance solution prepared the next day was added such that final concentrations were 10000, 3000, 1000, 300, 100, 30, 10, 3, and 1 nM. […] After incubation for 1 to 4 hours, absorbance OD450 at 450 nm was measured. […]
Structures can show the parent of a compound that is named as a salt.
recorded.endpoint: GI50 (nM)
Numbers only here, please. The scale is nM.

As a guide, the following entries are already answered.
C[C@H](Nc1cc(-c2n[nH]c(=O)o2)cc(Cl)c1Cl)C1CCNCC1 [Example 79, dihydrochloride]    53
NCCc1ccc(-c2cc(-c3n[nH]c(=O)o3)ccc2C(F)(F)F)cc1 [Example 22, hydrochloride]    2200
N[C@H]1CC[C@@H](COc2cc(-c3n[nH]c(=O)o3)ccc2Cl)CC1 [Example 243]    150
Cc1c(F)cc(-c2n[nH]c(=O)o2)cc1N[C@@H](C)C1CCNCC1 [Example 99, dihydrochloride]    97
C[C@@H]1CNCC[C@@H]1[C@H](C)N1CCC(=O)c2c(F)cc(-c3n[nH]c(=O)o3)cc21 [Example 245, hydrochloride]    3200
O=c1[nH]nc(-c2cc(Br)c3cnn(CC4CCNCC4)c3c2)o1 [Example 124, hydrochloride]    4100

Tell us which GI50 value is on record for O=c1[nH]nc(-c2ccc(C(F)(F)F)c(NC3CC34CCNCC4)c2)o1 (stereo not drawn) [Example 42, hydrochloride]
270

Given C[C@H](Nc1cc(-c2n[nH]c(=O)o2)cc(F)c1Cl)[C@H]1C[C@@H](N)C1 [Example 178, hydrochloride] , respond with its GI50.
34

Given the compound NCC1CCN(c2cc(-c3n[nH]c(=O)o3)ccc2Cl)CC1 [Example 6] , write its reported GI50.
3600

Given the compound C[C@H](Nc1cc(-c2n[nH]c(=O)o2)cc(C(F)(F)F)c1Cl)C1CCNCC1 [Example 101, dihydrochloride] , write its reported GI50.
61

Respond only with GI50 recorded for CCOc1c(F)cc(-c2n[nH]c(=O)o2)cc1N[C@@H](C)[C@H]1CC[C@H](N)CC1 [Example 173, dihydrochloride]
250

Specify measured GI50 for CC[C@H](Nc1cc(-c2n[nH]c(=O)o2)ccc1C(F)(F)F)C1CCNCC1 [Example 138, hydrochloride] .
73

Retrieve GI50 measured for C[C@H](Nc1cc(-c2n[nH]c(=O)o2)cc(F)c1OC(F)F)C1(C)CCNCC1 [Example 213] and print it.
85

Give recorded GI50. C[C@@H](Nc1cc(-c2n[nH]c(=O)o2)ccc1C(F)(F)F)[C@H]1CC[C@H](N)CC1 [Example 111, hydrochloride]
140

Give the measured GI50 for NCCC1CCN(c2cc(-c3n[nH]c(=O)o3)cc3[nH]ncc23)CC1 [Example 12, dihydrochloride]
5100

----------
Molecular target: PIM1 serine/threonine kinase (Homo sapiens, UniProt P11309)
Construct: purchased Carna Bioscience, Inc
Sequence (P11309 whole entry): as the sequence (P11309 whole entry, change not shown) above
Assay: PIM1 serine/threonine kinase inhibitory effect
Type: biochemical
Conditions: PIM1 serine/threonine kinase activity; ATP 40 μM; 30° C., 30 minutes
Protocol: Each test substance was prepared to 10 mM with dimethylsulfoxide (DMSO), and further diluted with DMSO so as to have concentrations of 1000, 300, 100, 30, 10, 3, 1, 0.3, 0.1, 0.03, 0.01, and 0.001 μM. Moreover, each dilution was further diluted 33.3-fold with an assay buffer to prepare a test substance solution. The composition of the assay buffer was 50 mM HEPES (pH 7.0), 0.02% NaN3, 0.01% Bovine Serum Albumin, 0.1 mM Orthovanadate, 1 mM Dithiothreitol, and 5 mM MgCl2. […]
Structures can show the parent of a compound that is named as a salt.
Known IC50 of a selection of compounds
Please give the number followed by its unit.

# annotated cases, reported IC50 shown
N[C@H]1CC[C@H](COc2cc(-c3n[nH]c(=O)o3)ccc2Cl)CC1    3.7 nM
C[C@H](Nc1cc(-c2n[nH]c(=O)o2)ccc1C(F)(F)F)[C@H]1CCC[C@@H](N)C1 [Example 194, hydrochloride]    12 nM
O=c1[nH]nc(-c2ccc(C(F)(F)F)c(NCCN3CCNCC3)c2)o1 [Example 65, dihydrochloride]    14 nM
CC[C@@H]1CNCC[C@@H]1[C@H](C)Nc1cc(-c2n[nH]c(=O)o2)cc(F)c1C(F)(F)F    1.1 nM
O=c1[nH]nc(-c2ccc(Cl)c(NC3CCNCC3)c2)o1 [Example 31, hydrochloride]    70 nM
C[C@H](Nc1cc(-c2n[nH]c(=O)o2)cc(F)c1C(F)(F)F)[C@H]1CCNC[C@H]1F [Example 223, hydrochloride]    1.6 nM

Turning now to a further compound:
Query IC50 for `N[C@H]1CC[C@@H](COc2cc(-c3n[nH]c(=O)o3)ccc2Cl)CC1`
4.1 nM
